Just for reference, PubChem BioAssay (NCI) is where these values come from.

# MEASUREMENT_DESCRIPTION: NCI Yeast Anticancer Drug Screen. Data for the rad52 strain (AID 147);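 also: 0% = growth of vehicle-treated control cultures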
# RUN_CONDITIONS: S. cerevisiae rad52 mutant growth inhibition; at 33.0 µM; active compounds read high
Compounds without any hit were thinned out: in the full panel of roughly 79,000, 15% have a hit.
OUTCOME_MEASURE: growth inhibition (%)

                                   molecule  numeric_readout
0          COCCOC(=O)CCn1cc(F)c(=O)[nH]c1=O               31
1                  O=CC=C(c1ccccc1)c1ccccc1                8
2  COc1ccc(C2c3cc4c(cc3OC(C)(O)C2C)OCO4)c(OC)c1 (stereo not drawn)               10

* * *

The following compounds are shown together with reported growth inhibition values.
# MEASUREMENT_DESCRIPTION: NCI Yeast Anticancer Drug Screen. Data for the wt1 strain (AID 149);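 also: 0% = growth of vehicle-treated wt1 cultures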
# RUN_CONDITIONS: S. cerevisiae wt1 strain (SPY 50644) growth inhibition; at 100.0 µM; active compounds read high
About 79,000 compounds went through this panel and 15% of them were active in at least one assay; those are over-represented in the sample as a whole.
OUTCOME_MEASURE: growth inhibition (%)

>>> print(df.to_string())
                                    compound    outcome_measure  numeric_readout
 0  CCCN(CCC)CC(O)c1cc(-c2ccc(Cl)cc2)nc2c(C)c(Cl)ccc12 (centres undefined)  growth inhibition               97
 1                  c1ccc(-c2nc3cccnc3s2)cc1  growth inhibition                0
 2    CC(=O)N/N=C/C(C)(C)C(C)(C)/C=N/NC(C)=O  growth inhibition               42
 3  C/C(=N/NC(=S)N1CCCCCC1)c1cccc(/C(C)=N\NC(=S)N2CCCCCC2)n1  growth inhibition               81
 4  CC(C)(CN1CCCCC1)C(=O)CC(SCCS(=O)(=O)O)c1ccc(Br)cc1 (centres undefined)  growth inhibition               24
 5  Cc1ccc(S(=O)(=O)NCCSS(=O)(=O)c2ccc(C)cc2)cc1  growth inhibition               95
 6           O=[N+]([O-])/C=C/c1ccc2ccccc2c1  growth inhibition              100
 7  CCCCN1C(=O)N(c2ccc(OCC)cc2)C2N(CCCC)C1C(C)(C)C2(C)C (centres undefined)  growth inhibition               52
 8  COc1cc(C2c3cc4c(cc3OC(NNc3ccccc3)C2C)OCO4)cc(OC)c1OC (centres undefined)  growth inhibition               94
 9                NC(=S)N/N=C\c1nccc2ccccc12  growth inhibition               99
10              c1ccc2c(c1)Oc1cccc3cccc-2c13  growth inhibition               10
11  FC(F)(F)c1nc2nc(Cl)c(Cl)nc2n1CCCN1CCOCC1  growth inhibition               18
12              CC1=C(SCCO)C(=O)c2ccccc2C1=O  growth inhibition                4
13  Cc1ccc(Nc2nc3c(=O)n(C)c(=O)n(C)c3nc2Nc2ccc(C)cc2)cc1  growth inhibition                6
14  O=C1C=CC(=O)c2c(O)c(Nc3ccc(OC(F)(F)F)cc3)c(Cl)c(O)c21  growth inhibition               94
15  COc1ccc(NC(=S)N/N=C(\c2ccccc2)c2ccccn2)cc1  growth inhibition               95
16  CN(C)Cc1cc(N=Nc2ccc(Cl)cc2)cc(CN(C)C)c1O  growth inhibition               63
17  CCC#CCCCOC(=O)c1cc([N+](=O)[O-])cc([N+](=O)[O-])c1  growth inhibition               99
18           O=C1c2ccccc2C(=O)c2cc(CBr)ccc21  growth inhibition               53
19  CC(C)NC(=O)OCc1c(COC(=O)NC(C)C)c(-c2ccc(Cl)c(Cl)c2)n2c1CCC2  growth inhibition               30
20  O=C1OC(=O)C2CCCC3CCCC1C32 (centres undefined)  growth inhibition               97
21  CNC(=O)OCc1c(COC(=O)NC)c(-c2ccc(-c3ccccc3)cc2)n(C)c1C  growth inhibition               23
22       Fc1ccc(NC(=S)SCc2ccc3c(c2)OCO3)cc1F  growth inhibition               97
23              O=[N+]([O-])c1cc(CCl)ccc1CCl  growth inhibition               97
24  CC(C)C1=CC2=C[C@H](O)[C@H]3C(C)(C)CCC[C@]3(C)C2=C(O)C1=O  growth inhibition               94
25           O=C(c1cc(Br)ccc1O)c1cc(Br)ccc1O  growth inhibition              100
26  O=C1C=CC(=O)N1c1ccc2c(c1)Cc1cc(NC(=O)C(F)(F)F)ccc1-2  growth inhibition               60
27  N#Cc1ccc(C2NN=CC23C(=O)c2ccccc2OC3c2ccccc2)cc1 (centres undefined)  growth inhibition                2
28         O=[N+]([O-])c1cccc2nccc(NCCCO)c12  growth inhibition               16
29   COC(=O)c1ccc(CCC2=CC(=O)C(Br)=CC2=O)cc1  growth inhibition               28
30  CCCCCCCCNC(=O)C1=C(C)NC(C)=C(C(=O)NCCCCCCCC)C1  growth inhibition                3
31  Cc1[nH]c2ccccc2c1C(c1ccc(N)cc1)c1c(C)[nH]c2ccccc12  growth inhibition               45
32  CC1(Cl)CC(O)C2(CC1Br)C1(C)OC1C1OC1(Br)C2(C)C (centres undefined)  growth inhibition               98
33  CCc1ncnc2cc(OCC3CO3)c(OC)cc12 (centres undefined)  growth inhibition               20

* * *

# MEASUREMENT_DESCRIPTION: NCI Yeast Anticancer Drug Screen. Data for the bub3 strain (AID 167)
# RUN_CONDITIONS: S. cerevisiae bub3 mutant strain, at 50.0 µM, active compounds read high
The panel holds about 79,000 compounds, 15% with a hit somewhere; the sample as a whole holds those more often. Active and inactive are the calls of the source. Cut-off read from the data, not from the text of the source: active = growth inhibition above about 70%; inactive = the rest.
OUTCOME_MEASURE: growth inhibition

                                   compound    outcome_measure            result
0  COc1ccccc1N=NC(C(=O)c1ccccc1)C(=O)c1ccccc1  growth inhibition    92.5% (active)
1                           O=c1ssc2ncccc12  growth inhibition    93.2% (active)
2  Cn1c(N)nc(-c2ccc(Cl)cc2)c1SSc1c(-c2ccc(Cl)cc2)nc(N)n1C  growth inhibition    94.9% (active)
3  CC1(C)[C@@H]2CC[C@]1(C)[C@H](OC(=O)CSC#N)C2  growth inhibition      99% (active)
4  O=C1C=CC(=O)N1c1ccc2c(c1)Cc1cc(NC(=O)C(F)(F)F)ccc1-2  growth inhibition    84.6% (active)
5  O=C1C2C=CC1C1C(=O)OC(=O)C21 (stereo not given)  growth inhibition    89.8% (active)
6  CC(=O)Nc1ccc2c(c1)C(=Nc1ccc(C(=O)O)cc1)c1ccccc1-2  growth inhibition    91.6% (active)
7                            C#CCCCc1ccccc1  growth inhibition  39.9% (inactive)
8            Cc1nc(-c2ccccc2)c(-c2ccccc2)s1  growth inhibition    84.5% (active)
9  CC1(Cl)CC(O)C2(CC1Br)C1(C)OC1C1OC1(Br)C2(C)C (stereo not given)  growth inhibition    73.5% (active)

* * *

# MEASUREMENT_DESCRIPTION: NCI Yeast Anticancer Drug Screen. Data for the bub3 strain (AID 167)
# RUN_CONDITIONS: S. cerevisiae bub3 mutant strain, at 11.0 µM, active compounds read high
# Experimental: Growth inhibition of yeast strains with defined genetic alterations is measured as a screen for potential anti-cancer activity. Selected strains with alterations in DNA damage repair or cell cycle control were exposed to compounds and growth inhibition was measured relative to vehicle treated controls. The strain used in this assay is bub3
Compounds without any hit were thinned out: in the full panel of roughly 79,000, 15% have a hit. The source made the active and inactive calls. No stated cut-off is given here; in the data, active means growth inhibition above about 70%; inactive means the rest.
OUTCOME_MEASURE: growth inhibition

>>> df
                                    molecule    outcome_measure           result
 0  CCN(CC)CC[n+]1ccc2c(C)c3[nH]c4ccc(O)cc4c3c(C)c2c1  growth inhibition   -5% (inactive)
 1         O=C(Nc1ccccc1)OCCc1ccc(Cl)c(Cl)c1  growth inhibition   37% (inactive)
 2  C[CH2][Sn]([CH2]C)([O]C(=O)C(OC(C)=O)c1ccccc1)[O]C(=O)C(OC(C)=O)c1ccccc1 (stereo unspecified)  growth inhibition   12% (inactive)
 3  O=C(O)c1ccccc1-c1ccccc1C(=O)Nc1ccc2c(c1)Cc1ccccc1-2  growth inhibition   27% (inactive)
 4    CC(C)c1ccccc1NC(=O)/C(Cl)=C(\Cl)C(=O)O  growth inhibition    5% (inactive)
 5      Fc1ccc(NC(=S)SCc2ccc(Cl)c(Cl)c2)cc1F  growth inhibition   21% (inactive)
 6  COP(=O)(OC)/C(=C\C1=CN(C(c2ccccc2)(c2ccccc2)c2ccccc2)CN1)NC=O  growth inhibition  -41% (inactive)
 7  O=C(O)c1cccc(-c2c3ccc(=O)cc-3oc3cc(O)ccc23)c1  growth inhibition   49% (inactive)
 8         CCCCCCCCCCCC1=C(O)C(=O)C=C(O)C1=O  growth inhibition   54% (inactive)
 9  O=C(c1ccc(Cl)cc1)C1OC12C(=O)Nc1ccccc12 (stereo unspecified)  growth inhibition     99% (active)
10  CCOC(=O)c1cnc2c(C(F)(F)F)cccc2c1N=[N+]=[N-]  growth inhibition   -4% (inactive)
